Source listed as PubChem BioAssay (NCI).

Recorded log10 of TGI values for a group of compounds are listed next.
System: UO-31 renal
Assay: NCI tumour cell line growth inhibition, 48 h
Remember, log10 of TGI, in µM.

{"columns": ["compound", "testedSystem", "log10 of TGI"],
 "data": [
  ["CN(C)c1cccc2c1C(=O)C=CC21CCc2ccc(N(C)C)c3c(N(C)C)ccc1c23 (stereo not given)", "UO-31 renal", 1.38],
  ["CN(C)CCNC(=O)c1cccc2ccc(-c3ccc(-c4ccccc4)cc3)nc12", "UO-31 renal", 1.39],
  ["CCN(CC)CCn1[nH]c2c3ccc(=O)cc3sc3c(NCCN)ccc1c32", "UO-31 renal", 1.72],
  ["O=C(C[P+](c1ccccc1)(c1ccccc1)c1ccccc1)C[P+](c1ccccc1)(c1ccccc1)c1ccccc1", "UO-31 renal", -0.07]
]}

# ---- query compound ----
Incoming: Consider the compound "COc1cc2c(=O)n(CCN(C)C)c3c4cc5c(cc4ccc3c2cc1OC)OCO5" and give its measured log10 of TGI.
Outgoing: -0.32
